assay: gradient 5% acetonitrile 3 min, to 50% in 2 min, to 85% in 15 min, held 3 min, 100 µL/min; conditions: column: Zorbax Extend-C18 2.1 x 50 mm; eluents: water / acetonitrile, 0.1% formic acid
# cutoff 700 s applies to RP-LC retention time; >= gives rule met, < gives rule not met

Ask: Quick check: does Cc1cc(C2CCCN2C(=O)c2cnn3c(C(F)(F)F)cc(-c4ccco4)nc23)on1 (configuration not stated) have RP-LC retention time greater than or equal to 700 s?
Reply: rule met

Ask: Field entry: "CN(CC(=O)N1CCN(c2ccc(Cl)cc2)CC1)S(=O)(=O)c1ccc2c(c1)CCCC(=O)N2"
Reply: rule met

Ask: Field entry: COc1cc(OC)cc(C(=O)N2CCC3(C2)C(=O)N(C)c2ccc(OC)cc23)c1 (configuration not stated)
Reply: rule met

Ask: Field entry: "Cn1cc(CN2CCC(C(=O)N3CCN(c4ccccc4F)CC3)CC2)c2cc(Cl)ccc21"
Reply: rule met

Ask: Field entry: CC1CN(C(=O)c2cc3cc([N+](=O)[O-])ccc3s2)CC(C)O1 (configuration not stated)
Reply: rule met

Ask: Field entry: "Cc1nn2c(CNS(=O)(=O)Cc3ccccc3Cl)c(-c3ccccc3)nc2s1"
Reply: rule met

Ask: Field entry: "COc1ccc(-n2c(=O)c(C(=O)Nc3cc(F)cc(F)c3)c(O)c3cccnc32)cc1"
Reply: rule met

Ask: Field entry: "Cc1csc(NC(=O)CSc2nn3c(=O)c(C)nnc3s2)n1"
Reply: rule not met

Ask: Field entry: "Cc1ccc(Cl)cc1NC(=O)CN(C)S(=O)(=O)c1c[nH]c(C(=O)N2CCCC2)c1"
Reply: rule met

Ask: Field entry: O=C(CN1C(=O)C2CCCCN2c2ccc(S(=O)(=O)N3CCCC3)cc21)NCCc1ccccc1 (configuration not stated)
Reply: rule met

Ask: Field entry: "CCn1nc(C)c(CNC(=O)Nc2cc(OC)c(OC)c(OC)c2)c1C"
Reply: rule not met

Ask: Field entry: "O=C(Cn1nc(N2CCSCC2)c2ccccc2c1=O)Nc1ccc(Br)cc1"
Reply: rule met

Ask: Field entry: "COc1cccc(NC(=O)Cn2cnc3nc(N4CCC(C(=O)NC5CC5)CC4)sc3c2=O)c1"
Reply: rule not met

Ask: Field entry: "Cc1nnc2ccc(-c3noc(-c4ccccc4F)n3)cn12"
Reply: rule met

Ask: Field entry: O=C(NCc1csc(C2CCCN(C(=O)C3CCCCC3)C2)n1)C1CCC1 (configuration not stated)
Reply: rule met

Ask: Field entry: Cc1noc(C)c1CNC(=O)C(C)Oc1cccc(Cl)c1 (configuration not stated)
Reply: rule met

Ask: Field entry: "O=C(Nc1cccn2c(C3CCC3)nnc12)c1cc2ccccc2[nH]1"
Reply: rule met

Ask: Field entry: "Cc1ccc(F)c(NC(=O)c2nc3nc(C)cc(C(F)F)n3n2)c1"
Reply: rule met

Ask: Field entry: "NC(=O)C1CCN(C(=O)Cn2c(=O)nc(-c3ccccc3)c3cc(Cl)ccc32)CC1"
Reply: rule not met

Ask: Field entry: O=C(NC1CCc2nnc(C3CC3)n2CC1)c1cccs1 (configuration not stated)
Reply: rule not met

Ask: Field entry: O=C(NC1CC1)C1CCCN(C(=O)c2cc(-c3ccncc3)n[nH]2)C1 (configuration not stated)
Reply: rule not met

Ask: Field entry: Cc1ccc(N2CCC(NC(=O)NC3CCCC3)C2=O)cc1C (configuration not stated)
Reply: rule met

Ask: Field entry: "Cc1c(CC(=O)N2CCN(c3cccc(Cl)c3)CC2)c2c(=O)n(C)c(=O)n(C)c2n1C"
Reply: rule met

Ask: Field entry: "O=C(c1ccc(-c2cccnc2)nc1)N1CCN(c2ccccc2Cl)CC1"
Reply: rule met

Ask: Field entry: "O=C(N[C@@H]1CN(Cc2ccccc2)C[C@H]1CO)C1(c2ccccc2)CC1"
Reply: rule not met

---

Please provide measured RP-LC retention time for the entries that follow.
assay: gradient 5% acetonitrile 3 min, to 50% in 2 min, to 85% in 15 min, held 3 min, 100 µL/min; settings: column: Zorbax Extend-C18 2.1 x 50 mm; eluents: water / acetonitrile, 0.1% formic acid
The answer is to be given in s; state only the numeric part.

Ask: Which RP-LC retention time value belongs to "CN(Cc1ccccc1)C(=O)c1cc2c(n1C)CCN(Cc1cccc(F)c1)C2" ?
Reply: 681

Ask: Field entry: "CCOc1ccc(NS(=O)(=O)c2ccc3c(c2)CCCC(=O)N3)cc1"
Reply: 709

Ask: Field entry: "COC(=O)c1c(NCc2ccccc2Br)c2cc(F)ccc2[nH]c1=O"
Reply: 787

Ask: Field entry: "Cc1c(Cl)cccc1S(=O)(=O)N1CCC(C(=O)NCc2csc(-c3cccs3)n2)CC1"
Reply: 1020

Ask: Field entry: COC(=O)c1[nH]c(C)c(C(=O)C(C)N(CC2CCCCC2)C(=O)c2ccc(F)cc2)c1C (centres undefined)
Reply: 1080

Ask: Field entry: CCc1cccc(N2C(=O)CN(S(C)(=O)=O)CC2(C)C(=O)NCc2ccc(Cl)cc2)c1 (centres undefined)
Reply: 903

Ask: Field entry: COc1ccc(OC)c(CNC(=O)C2CCCN(c3nccnc3Oc3ccccc3)C2)c1 (centres undefined)
Reply: 957

Ask: Field entry: "Cc1cccc(N2CCN(C(=O)c3c(C)sc4ccn(C)c(=O)c34)CC2)c1"
Reply: 769

Ask: Field entry: "O=c1c2cnn(-c3ccc(F)cc3)c2ncn1Cc1nc(-c2ccccc2)no1"
Reply: 1010

---

experiment: gradient 5% acetonitrile 3 min, to 50% in 2 min, to 85% in 15 min, held 3 min, 100 µL/min; details: column: Zorbax Extend-C18 2.1 x 50 mm; eluents: water / acetonitrile, 0.1% formic acid
Observation type: RP-LC retention time (s)
The answer is to be given in s; state only the numeric part.

Ask: Which RP-LC retention time value belongs to "CC(C)N1CCn2cc(S(=O)(=O)NCc3ccc(F)cc3Cl)cc2C1=O" ?
Reply: 788

Ask: Field entry: "CN(C(=O)Cn1cnc2c(-c3ccccc3)csc2c1=O)c1ccc(F)cc1"
Reply: 938

Ask: Field entry: CCn1c(N2CCCC(C(=O)NCCCN3CCCc4ccccc43)C2)cc(=O)n(C)c1=O (configuration not stated)
Reply: 847

Ask: Field entry: COc1cccc(-n2c(N3CCCC(C(=O)NC4CC4)C3)nc3ccsc3c2=O)c1 (configuration not stated)
Reply: 710

Ask: Field entry: "O=C(Cn1c2ccccc2c2ncn(Cc3nc(C4CC4)no3)c(=O)c21)NC1CCCCC1"
Reply: 834

Ask: Field entry: O=S(=O)(c1cccnc1)N1CC(c2noc(C3CCCN3CC3CC3)n2)C1 (configuration not stated)
Reply: 592

Ask: Field entry: "COc1ccc(C)cc1S(=O)(=O)N1CCN(Cc2ccc3c(c2)OCO3)CC1"
Reply: 609

Ask: Field entry: "CCn1ncn2cc(S(=O)(=O)Nc3ccc(Cl)cc3)cc2c1=O"
Reply: 792

Ask: Field entry: CCOC(=O)C1CCCN(S(=O)(=O)c2cc(C(=O)N3CCCCC3)n(C)c2C)C1 (configuration not stated)
Reply: 858

Ask: Field entry: CCOc1ccc(C(=O)NC(C)C(=O)Nc2nc3ccccc3[nH]2)cc1 (configuration not stated)
Reply: 640

Ask: Field entry: "COc1ccc(CNc2c(-c3nc(C4CC4)no3)cnc3nc(C)ccc23)cc1OC"
Reply: 683

Ask: Field entry: "CC1(C)CC(=O)N(CC(=O)Nc2c(F)c(F)c(F)c(F)c2F)c2ccccc2S1(=O)=O"
Reply: 860

---

assay: gradient 5% acetonitrile 3 min, to 50% in 2 min, to 85% in 15 min, held 3 min, 100 µL/min; details: column: Zorbax Extend-C18 2.1 x 50 mm; eluents: water / acetonitrile, 0.1% formic acid
Observation type: RP-LC retention time
Just the number plus its unit, please.

Ask: Which RP-LC retention time value belongs to CC[C@@]1(O)C[C@H](OC2CC(N(C)C)C(O)C(C)O2)c2c(cc3c(c2O)C(=O)c2c(O)ccc(O)c2C3=O)[C@H]1C(=O)OC (stereo partly specified) ?
Reply: 717 s

Ask: Field entry: CCOc1ccccc1CNC(=O)C1CCN(C(=O)c2ncn3c2COC(c2ccccc2)C3)CC1 (stereo unspecified)
Reply: 803 s

Ask: Field entry: "Cn1nccc1C(=O)NCc1ccc(-c2nc(-c3ccc(F)cc3)no2)s1"
Reply: 930 s

Ask: Field entry: "COc1ccc(Nc2nc(N3CCN(C)CC3)nc3c2C(=O)CC(C)(C)C3)cc1"
Reply: 706 s

Ask: Field entry: "O=C(Cc1csc2nc(-c3ccccc3)cn12)NCCCc1ccccc1"
Reply: 841 s

Ask: Field entry: "COc1ccc(N2CCN(c3nc(C(=O)NCCN(C)C)cs3)CC2)cc1"
Reply: 618 s

Ask: Field entry: CC1(C)CC(=O)C2=C(C1)Nc1ccccc1N(CC(=O)NCc1ccncc1)C2c1ccco1 (stereo unspecified)
Reply: 631 s

Ask: Field entry: "Cc1cc(N2CCN(C)CC2)nc2ccc(NC(=S)NCC3(c4ccccc4)CCCC3)cc12"
Reply: 636 s

Ask: Field entry: "Cc1ccc(S(=O)(=O)NCCn2ncccc2=O)s1"
Reply: 637 s

Ask: Field entry: "Cc1ccc2oc(N3CCN(C(=O)c4ccc(-c5noc(C6CC6)n5)cc4)CC3)nc2n1"
Reply: 670 s

Ask: Field entry: Clc1ccc(Cl)c(-c2ccc(CNCC3CCCO3)o2)c1 (stereo unspecified)
Reply: 699 s
